Reference source: the supplement of paper PMC10567573

B1: PCDHGA10 (parent)
chain: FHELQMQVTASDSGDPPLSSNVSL

- Variants of: B1
- EXPERIMENT_NOTES: protein stability index of a GFP-peptide fusion (GPS, HEK-293T) (PSI 1-6); higher = more stable;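 also: lentivirally expressed fusions sorted by FACS into six bins by GFP to DsRed ratio, PSI derived from sequencing read proportions per bin multiplied by bin number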
- ASSAY_CONTEXT: c terminus: a fixed tail appended
Class Y: protein stability index at least 2. Class N: protein stability index below 2.

Previously resolved entries follow.
FHELQMQVTASDSGDCPLSSNVSL [P16C]	N
FHELQMQVNASDSGDPPLSSNVSL [T9N]	Y
FFELQMQVTASDSGDPPLSSNVSL [H2F]	Y
FHELQMQVTASDSGDPRLSSNVSL [P17R]	N
FHELQMQVTAEDSGDPPLSSNVSL [S11E]	Y
FHELQMQVTASDSGDPPLSSKVSL [N21K]	Y
FHELQMQVTASDSGDPPLSSNASL [V22A]	Y
FHELQMQVTASDSGDPPLSSNMSL [V22M]	Y
FHTLQMQVTASDSGDPPLSSNVSL [E3T]	N
FHELQMQVTASDSRDPPLSSNVSL [G14R]	Y

q: In plain terms: is recorded protein stability index at least 2 for FHKLQMQVTASDSGDPPLSSNVSL [E3K] ?
a: Y

q: // inclusive: protein stability index at least 2? input: FHELQMQVTASDSFDPPLSSNVSL [G14F]
a: N

q: Kindly determine if protein stability index recorded for FHELQMQVTLSDSGDPPLSSNVSL [A10L] is above or exactly 2.
a: N

q: Is protein stability index for FHELQMFVTASDSGDPPLSSNVSL [Q7F] at or above 2?
a: Y

q: Could you please find out whether FHELWMQVTASDSGDPPLSSNVSL [Q5W] has protein stability index that meets 2 or exceeds it?
a: Y

q: Identify whether the reported protein stability index of the following variant is 2 or greater: FHELQMQVTASDSGDPPNSSNVSL [L18N]
a: Y

q: Evaluate FHELQMQVTASDSGDPHLSSNVSL [P17H] : protein stability index at minimum 2?
a: N

q: Check this variant for protein stability index at or above 2: FHELQMQATASDSGDPPLSSNVSL [V8A]
a: Y
